TESTED TARGET: Replicative DNA helicase DnaB (Mycobacterium tuberculosis, UniProt P9WMR3)
PROCEDURE SUMMARY: DnaB intein splicing inhibitors, dose response, biochemical, cell-free fluorescence (AID 449749)
Type: functional
Active and inactive are the calls of the source.
Outcome (select one): y = active, n = inactive

Consider the worked cases shown below.
O=S(=O)(c1ccccc1)c1ncc(C(F)(F)F)cc1Cl = y
Cc1nn(-c2ccc(Cl)cc2)c(O)c1C(c1cccc(O)c1)c1c(C)[nH]n(-c2ccc(Cl)cc2)c1=O (centres undefined) = y
O=C(c1ccc2nc(Cc3cccc(Cl)c3)oc2c1)N1CCC(O)CC1 = y
Cc1[nH]n(-c2ccccc2)c(=O)c1C=C1C(=O)NC(=O)NC1=O = y
O=C1/C(=C/c2ccc3c(c2)OCO3)CCC/C1=C\c1ccc2c(c1)OCO2 = n
Cc1cc(C)c(S(=O)(=O)/N=C2\C=C(Nc3ccc(C(=O)O)cc3)C(=O)c3ccccc32)c(C)c1 = y

GET /call?item= COc1ccc(-c2[nH]nc3c2C(c2ccoc2)C(C#N)=C(N)O3)cc1 (centres undefined) returns the recorded outcome of this test.
y

Assay outcome for COc1ccc(N(C)C(=O)c2cc3c(s2)-c2c(C)cccc2OC3)c(OC)c1 : what was it?
y

---

Tested on: P388/ADR
PROCEDURE SUMMARY: cells
Assay type: functional
MEASUREMENT SETUP: Mus musculus
Active and inactive are the calls of the source. *1 amine or outer side, *2 acyl side, *3 side chain or, on linkers, in order; H or OH if unused. Where a SMILES comes first, the peptide text is derived from it. Bridges are numbered along the chain shown (N, C = ends). [ ]: non-standard residue; d: D form. The star is where a group is joined. X56 = CC(C)C(C)C(C(=O)[*:2])N(C)[*:1]; Picolinoyl(3-OH) = O=C(c1ncccc1O)*; NMePhg = CN[CH](C(=O)O)c1ccccc1; Hyp = O=C(O)[CH]1C[CH](O)CN1; Sar = CNCC(=O)O
Quick reference for GI50 among some compounds

Known results for compounds:
CCOC(=O)C(CC(C)C)NC(=O)C(Cc1ccc(N(CCCl)CCCl)cc1)NC(C)=O (centres undefined) = 1.91 µM (inactive)
CC(C)CC1NC(=O)C(NC(=O)c2ncccc2O)C(C)OC(=O)C(c2ccccc2)N(C)C(=O)C(C)NC(=O)C(C(C)C(C)C)N(C)C(=O)CN(C)C(=O)C2CC(O)CN2C1=O (centres undefined) ({Picolinoyl(3-OH)}-TL[Hyp][Sar][X56]A[NMePhg]; ester 1-C; configuration not given here) = > 109 µM (inactive)
N#C/C(=C\c1ccc(O)cc1)C(N)=O = > 100 µM (inactive)

Turning to the following compound.
Param item = CO[C@@]12[C@H](COC(N)=O)C3=C(C(=O)C(C)=C(N)C3=O)N1C[C@@H]1N[C@@H]12 [MITOMYCIN] ; retrieve measured GI50.
1.39 µM (inactive)

---

Test system: SN12K1
PROCEDURE SUMMARY: cells
Type: functional
MEASUREMENT SETUP: Homo sapiens
Calls of active or inactive are those of the source. *1 amine or outer side, *2 acyl side, *3 side chain or, on linkers, in order; H or OH if unused. Where a SMILES comes first, the peptide text is derived from it. Bridges are numbered along the chain shown (N, C = ends). [ ]: non-standard residue; d: D form. The star is where a group is joined. X56 = CC(C)C(C)C(C(=O)[*:2])N(C)[*:1]; Picolinoyl(3-OH) = O=C(c1ncccc1O)*; NMePhg = CN[CH](C(=O)O)c1ccccc1; Hyp = O=C(O)[CH]1C[CH](O)CN1; Sar = CNCC(=O)O
Listed here are compounds together with their documented GI50.

Below, 4 compounds whose answers are already recorded.
COc1ccc2[nH]cc(/C=C(/C)c3ccncc3)c2c1 = 16 µM (inactive)
N#C/C(=C\c1ccc(O)cc1)C(N)=O = > 100 µM (inactive)
CCOC(=O)C(CC(C)C)NC(=O)C(Cc1ccc(N(CCCl)CCCl)cc1)NC(C)=O (stereo not given) = 2.2 µM (inactive)
COC1/C=C\C=C(/C)C(=O)NC2=CC(=O)C=C(C2=O)C(OC)C(C)CC(OC)C(OC)C(C)/C=C(/C)C1OC(N)=O (stereo not given) = 1.69 µM (inactive)

Moving on to the next compound.
Dear colleague, I am looking for the recorded GI50 of the following compound: CC(C)CC1NC(=O)C(NC(=O)c2ncccc2O)C(C)OC(=O)C(c2ccccc2)N(C)C(=O)C(C)NC(=O)C(C(C)C(C)C)N(C)C(=O)CN(C)C(=O)C2CC(O)CN2C1=O (stereo not given) ({Picolinoyl(3-OH)}-TL[Hyp][Sar][X56]A[NMePhg]; ester 1-C; configuration not given here)
51.3 µM (inactive)

---

TESTED TARGET: Beta-galactosidase (Escherichia coli)
Sequence (Q8VNN2 whole entry): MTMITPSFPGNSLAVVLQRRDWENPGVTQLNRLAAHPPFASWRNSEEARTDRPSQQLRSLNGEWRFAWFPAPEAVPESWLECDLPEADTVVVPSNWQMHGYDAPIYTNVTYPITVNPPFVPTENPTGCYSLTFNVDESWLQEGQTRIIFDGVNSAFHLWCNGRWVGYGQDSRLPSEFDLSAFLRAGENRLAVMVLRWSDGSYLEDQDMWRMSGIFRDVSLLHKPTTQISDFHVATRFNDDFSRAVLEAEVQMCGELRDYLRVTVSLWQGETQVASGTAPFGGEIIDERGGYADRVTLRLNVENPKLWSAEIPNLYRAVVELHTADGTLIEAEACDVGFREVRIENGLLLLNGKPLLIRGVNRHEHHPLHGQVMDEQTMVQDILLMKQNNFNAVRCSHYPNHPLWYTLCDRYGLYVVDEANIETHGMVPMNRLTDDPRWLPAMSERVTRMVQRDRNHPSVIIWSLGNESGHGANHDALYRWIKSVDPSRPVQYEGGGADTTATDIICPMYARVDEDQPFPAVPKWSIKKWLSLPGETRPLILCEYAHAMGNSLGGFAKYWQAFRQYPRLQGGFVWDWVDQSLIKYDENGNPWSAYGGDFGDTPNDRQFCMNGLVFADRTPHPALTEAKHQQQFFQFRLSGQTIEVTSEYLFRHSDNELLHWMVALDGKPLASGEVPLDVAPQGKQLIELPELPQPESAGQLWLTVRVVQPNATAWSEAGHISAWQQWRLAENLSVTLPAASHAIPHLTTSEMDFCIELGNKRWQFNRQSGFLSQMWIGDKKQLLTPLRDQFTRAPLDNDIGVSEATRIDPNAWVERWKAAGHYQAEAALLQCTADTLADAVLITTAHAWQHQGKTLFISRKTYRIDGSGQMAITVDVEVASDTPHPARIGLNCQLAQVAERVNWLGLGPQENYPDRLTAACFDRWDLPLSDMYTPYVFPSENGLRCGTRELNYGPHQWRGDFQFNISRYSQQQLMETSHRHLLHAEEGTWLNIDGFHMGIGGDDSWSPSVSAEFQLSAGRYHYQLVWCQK
PROCEDURE SUMMARY: Dose response counterscreen for EBI2 assay utilizing the enzyme, b-galactosidase.
Type: functional
Active and inactive are the calls of the source.
Measured IC50, listed per entry for reference.

Examples with their reported IC50 follow.
OC[C@@H]1CN(Cc2cccc(C(F)(F)F)c2)C[C@H](n2cnc3c(NC4CC4)ncnc32)O1 = > 80 µM (inactive)
Nc1c(S(=O)(=O)c2ccccc2)c2nc3ccccc3nc2n1/N=C/c1ccco1 = > 80 µM (inactive)
O=C(Nc1ccc(Cl)cc1)N1CCC(c2ccccc2)C1 (centres undefined) = > 80 µM (inactive)

GET /values?readout=IC50&system=Beta-galactosidase (Escherichia coli)&item= O=C(Cn1nc(C(=O)O)c2ccccc2c1=O)c1c[nH]c2ccccc12
> 80 µM (inactive)

---

TESTED TARGET: Leucine-rich repeat serine/threonine-protein kinase 2 (Homo sapiens, UniProt Q5S007);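 note: value from a broad kinome-wide panel profiling study in which LRRK2 was one of the kinases tested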
Sequence (Q5S007 whole entry): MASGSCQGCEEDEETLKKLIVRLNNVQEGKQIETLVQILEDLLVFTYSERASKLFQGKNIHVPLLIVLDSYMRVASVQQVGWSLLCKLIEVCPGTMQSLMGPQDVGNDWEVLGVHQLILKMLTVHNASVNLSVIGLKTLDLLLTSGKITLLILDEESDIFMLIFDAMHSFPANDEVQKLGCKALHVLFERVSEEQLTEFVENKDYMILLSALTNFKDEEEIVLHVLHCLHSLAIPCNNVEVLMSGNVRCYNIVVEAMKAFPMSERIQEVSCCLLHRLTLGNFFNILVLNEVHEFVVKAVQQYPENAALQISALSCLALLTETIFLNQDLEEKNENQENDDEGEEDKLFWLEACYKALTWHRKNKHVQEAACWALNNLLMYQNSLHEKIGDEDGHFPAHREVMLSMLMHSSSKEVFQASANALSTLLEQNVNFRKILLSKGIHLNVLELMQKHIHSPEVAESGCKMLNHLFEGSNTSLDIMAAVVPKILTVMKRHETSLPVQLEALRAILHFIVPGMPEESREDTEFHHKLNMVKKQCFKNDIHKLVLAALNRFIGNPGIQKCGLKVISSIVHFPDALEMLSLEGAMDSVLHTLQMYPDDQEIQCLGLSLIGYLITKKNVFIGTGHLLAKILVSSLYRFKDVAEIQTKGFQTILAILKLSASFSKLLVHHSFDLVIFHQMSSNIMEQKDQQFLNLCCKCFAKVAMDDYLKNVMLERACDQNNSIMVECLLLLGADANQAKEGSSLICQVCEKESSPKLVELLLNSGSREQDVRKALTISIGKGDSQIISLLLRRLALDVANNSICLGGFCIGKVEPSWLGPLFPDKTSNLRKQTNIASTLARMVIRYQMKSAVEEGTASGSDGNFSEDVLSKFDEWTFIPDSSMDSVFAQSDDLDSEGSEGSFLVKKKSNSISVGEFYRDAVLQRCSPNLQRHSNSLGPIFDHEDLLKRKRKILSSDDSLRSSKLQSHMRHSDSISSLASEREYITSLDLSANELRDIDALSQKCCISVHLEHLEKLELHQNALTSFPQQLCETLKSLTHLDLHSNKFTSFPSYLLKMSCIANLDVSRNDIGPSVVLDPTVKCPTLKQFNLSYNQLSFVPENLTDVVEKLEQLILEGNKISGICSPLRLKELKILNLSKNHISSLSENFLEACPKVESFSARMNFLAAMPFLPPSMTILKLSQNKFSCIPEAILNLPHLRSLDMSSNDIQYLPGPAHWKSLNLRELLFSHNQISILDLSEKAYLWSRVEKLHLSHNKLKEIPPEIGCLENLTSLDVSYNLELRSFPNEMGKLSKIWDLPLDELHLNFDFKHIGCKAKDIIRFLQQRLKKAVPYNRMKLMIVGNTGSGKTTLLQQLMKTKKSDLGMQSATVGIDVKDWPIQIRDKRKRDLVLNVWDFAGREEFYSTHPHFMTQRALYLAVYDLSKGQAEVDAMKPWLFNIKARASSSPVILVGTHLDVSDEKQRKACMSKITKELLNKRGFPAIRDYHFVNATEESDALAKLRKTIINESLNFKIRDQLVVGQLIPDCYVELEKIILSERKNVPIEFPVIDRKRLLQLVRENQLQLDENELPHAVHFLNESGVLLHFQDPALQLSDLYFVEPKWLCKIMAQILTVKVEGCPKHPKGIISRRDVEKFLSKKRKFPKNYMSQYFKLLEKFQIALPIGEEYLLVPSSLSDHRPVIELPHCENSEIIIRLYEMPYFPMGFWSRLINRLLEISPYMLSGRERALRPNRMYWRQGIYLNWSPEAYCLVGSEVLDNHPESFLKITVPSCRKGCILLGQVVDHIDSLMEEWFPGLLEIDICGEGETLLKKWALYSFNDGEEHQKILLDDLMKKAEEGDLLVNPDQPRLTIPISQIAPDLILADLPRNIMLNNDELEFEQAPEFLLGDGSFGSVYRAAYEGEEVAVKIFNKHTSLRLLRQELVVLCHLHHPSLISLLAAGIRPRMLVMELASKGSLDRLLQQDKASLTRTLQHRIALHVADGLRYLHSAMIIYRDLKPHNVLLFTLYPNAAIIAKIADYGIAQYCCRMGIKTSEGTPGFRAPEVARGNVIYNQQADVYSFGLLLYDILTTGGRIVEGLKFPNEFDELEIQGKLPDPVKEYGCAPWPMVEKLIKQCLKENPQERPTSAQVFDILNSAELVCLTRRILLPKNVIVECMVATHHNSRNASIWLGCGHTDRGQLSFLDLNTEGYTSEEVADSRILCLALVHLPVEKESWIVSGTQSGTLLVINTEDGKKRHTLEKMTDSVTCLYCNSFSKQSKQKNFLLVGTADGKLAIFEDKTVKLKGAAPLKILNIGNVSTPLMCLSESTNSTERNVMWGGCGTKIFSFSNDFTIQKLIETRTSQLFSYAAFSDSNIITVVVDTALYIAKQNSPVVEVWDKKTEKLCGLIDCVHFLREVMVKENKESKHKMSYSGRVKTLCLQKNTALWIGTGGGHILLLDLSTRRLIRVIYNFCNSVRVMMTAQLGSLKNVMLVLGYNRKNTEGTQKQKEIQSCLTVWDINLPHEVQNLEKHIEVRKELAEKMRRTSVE
Assay type: functional
Activity calls are given as the source filed them.
Just give me one of these, please: active, inactive

Fill in: this test's call for O=C(Nc1cccc(C(F)(F)F)n1)Nc1ccnc2cc(Cl)ccc12 is ___
inactive

Status in this test for O=C(Nc1cccc(C(F)(F)F)n1)Nc1ccnc2cc(OC(F)F)ccc12 ?
inactive

What outcome does the record of this test show for c1ccc(CNc2nc(Nc3cc(C4CC4)[nH]n3)c3sccc3n2)cc1 ?
active

Which outcome was entered for the compound CCC1CC(NS(=O)(=O)C2CC2)CC1c1ncc2cnc3[nH]ccc3n12 (stereo not given) in this test?
active

Returns: the outcome recorded for O=c1[nH]c2cc(Br)cnc2[nH]1 in this assay.
active

---

Items are presented alongside their recorded AC50.
TESTED TARGET: Dual specificity tyrosine-phosphorylation-regulated kinase 1A (Rattus norvegicus, UniProt Q63470)
Type: biochemical, Homo sapiens
Activity calls are given as the source filed them.

Solved cases (2 shown):
N=C(N)NC(=O)c1nc(Cl)c(N)nc1N = 9.17 µM (active)
COc1ccc(/C=C2\SC(=S)N(C(C)C(=O)NC3C=CS(=O)(=O)C3)C2=O)cc1 (centres undefined) = 2.73 µM (active)

If you can, please state the reported AC50 value of CN(C)S(=O)(=O)c1ccc(NC(=O)c2cc3ccccc3o2)cc1 .
29.9 µM (active)

AC50 for Cc1cc(C)c(S(=O)(=O)/N=C2\C=C(Nc3ccc(C(=O)O)cc3)C(=O)c3ccccc32)c(C)c1 ?
1.8 µM (active)

---

EC50 values for the compounds below.
PROCEDURE SUMMARY: growth suppression of PTEN-null colon cells, dose response, cell-based, HCT116 PTEN knockout (AID 1047);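 note: HCT116 colon tumor cells with PTEN knocked out; cells exposed to compound for 60 hours before readout; potency for loss of cell viability measured by luminescence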
Type: functional
Activity calls are given as the source filed them.

# count of solved cases: 2
Cc1ccc(Cl)cc1N1CCN(C(=O)c2cccc3c(=O)c(C)c(-c4ccccc4)oc23)CC1 = 8.26 µM (active)
COc1ccc(-n2nc(C(=O)c3cccs3)cc(-c3nc4ccccc4[nH]3)c2=N)cc1 = 14.6 µM (active)

Dear colleague, I am looking for the recorded EC50 of the following compound: CS(=O)(=O)N(CC(O)Cn1c2ccccc2c2ccccc21)c1cccc2ccccc12 (centres undefined)
16 µM (active)

Bench note: what EC50 did O=C(NCCCc1ccccc1)Nc1cccc(Cl)c1 show?
43.5 µM (active)

---

TESTED TARGET: 26S proteasome non-ATPase regulatory subunit 14 (Homo sapiens)
Sequence (O00487 whole entry): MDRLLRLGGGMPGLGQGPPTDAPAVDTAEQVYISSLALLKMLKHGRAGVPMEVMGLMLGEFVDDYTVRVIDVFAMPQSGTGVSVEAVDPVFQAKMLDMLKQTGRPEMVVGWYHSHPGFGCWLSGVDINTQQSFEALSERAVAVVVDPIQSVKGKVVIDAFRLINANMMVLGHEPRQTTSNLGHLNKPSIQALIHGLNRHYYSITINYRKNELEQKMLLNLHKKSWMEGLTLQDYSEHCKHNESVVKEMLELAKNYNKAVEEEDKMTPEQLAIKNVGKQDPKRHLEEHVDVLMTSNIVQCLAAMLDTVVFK
PROCEDURE SUMMARY: inhibition of proteasome subunit RPN11 – biochemical, fluorescence polarization, uHTS hits, confirmation (AID 602368)
Assay type: functional
The source made the active and inactive calls.
PROPERTY NAME: IC50

Known results for compounds:
CC1=C(C(=O)c2ccccc2)C(c2ccc(N3CCOCC3)cc2)NC(=O)N1 (centres undefined) = 17.1 µM (active)
CC(=O)c1cccc(NC(=O)CCc2nc3sc4c(c3c(=O)[nH]2)CCCC4)c1 = 33.9 µM (active)
COc1ccc(NN=C2C(=O)CC(C)(C)CC2=O)c(OC)c1 = 27 µM (active)

Name the reported IC50 value associated with the compound CCOc1ccc(CCNC(=O)c2nnn(CC(=O)Nc3ccc(C)cc3)c2N)cc1OCC
13.1 µM (active)
